Test system: VDR:RXRa (NR concentration 270 nM, RXRa partner concentration 90 nM)
Assay: PBM binding z-score (relative to random genomic background probes); higher = stronger binding; sequences stand for … in GC…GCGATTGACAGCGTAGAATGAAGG
// label = MET if PBM binding z-score is not less than 3, otherwise NOT MET

| SEQ STRING | LABEL VALUE |
| --- | --- |
| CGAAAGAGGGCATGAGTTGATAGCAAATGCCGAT | NOT MET |
| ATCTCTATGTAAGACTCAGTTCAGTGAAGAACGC | NOT MET |
| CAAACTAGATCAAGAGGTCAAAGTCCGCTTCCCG | MET |

Now look at this one.
Query: Form field: PBM binding z-score at least 3? Entry: "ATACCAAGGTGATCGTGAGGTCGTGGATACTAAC"
Reply: NOT MET

* * *

Recorded PBM binding z-score by entry
System: RXRa DBDmut IVT, anti-RXR (DBD mutation: RXRa K156A/R161A, NR concentration 90 nM)
Test: PBM binding z-score (relative to random genomic background probes); higher = stronger binding; sequences stand for … in GC…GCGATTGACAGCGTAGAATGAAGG
Just the number, please, no unit after it.

Solved entries:
| SEQ STRING | REPORTED PROPERTY | RECORDED VALUE |
| --- | --- | --- |
| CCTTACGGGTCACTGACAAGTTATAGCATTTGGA | PBM binding z-score | 1.85 |
| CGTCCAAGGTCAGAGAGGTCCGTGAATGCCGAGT | PBM binding z-score | 2.56 |
| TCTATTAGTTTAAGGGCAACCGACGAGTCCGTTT | PBM binding z-score | 1.94 |
| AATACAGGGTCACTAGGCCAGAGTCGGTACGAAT | PBM binding z-score | 2.71 |
| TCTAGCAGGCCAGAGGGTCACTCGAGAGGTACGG | PBM binding z-score | 0.0685 |

// field: PBM binding z-score; key: "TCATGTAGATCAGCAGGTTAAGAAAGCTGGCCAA" ; value = 0.626

For "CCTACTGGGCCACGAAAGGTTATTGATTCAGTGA" the sequence record lists PBM binding z-score as -0.0139

# PBM binding z-score of "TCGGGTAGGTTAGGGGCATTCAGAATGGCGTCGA" = 0.943

* * *

System: PPARg:RXRa 270nM:90nM, anti-RXR (NR concentration 270 nM, RXRa partner concentration 90 nM)
Experiment: PBM binding z-score (relative to random genomic background probes); higher = stronger binding; sequences stand for … in GC…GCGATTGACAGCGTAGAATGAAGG
Class membership depends on PBM binding z-score alone; the intervals are low range: < 2; mid range: ≥ 2 and < 4; high range: ≥ 4

Below, 5 sequences whose answers are already recorded.
| SEQ STRING | LABEL VALUE |
| --- | --- |
| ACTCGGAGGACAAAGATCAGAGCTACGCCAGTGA | mid range |
| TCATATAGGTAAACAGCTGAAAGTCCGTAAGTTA | mid range |
| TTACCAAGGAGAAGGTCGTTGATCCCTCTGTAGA | mid range |
| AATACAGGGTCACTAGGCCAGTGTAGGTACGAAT | high range |
| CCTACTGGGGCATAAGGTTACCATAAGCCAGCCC | high range |

Query: Exam item: assign "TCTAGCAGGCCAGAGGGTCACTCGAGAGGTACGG" to the correct category.
Reply: mid range

Query: For "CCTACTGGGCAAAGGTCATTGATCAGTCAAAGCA" , which PBM binding z-score bin applies?
Reply: high range

* * *

Tested on: PPARg DBDmut IVT, anti-PPARg (DBD mutation: PPARg1 K132A/R137A, NR concentration 270 nM)
Assay: PBM binding z-score (relative to random genomic background probes); higher = stronger binding; sequences stand for … in GC…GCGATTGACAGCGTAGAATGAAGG
Tick satisfied if PBM binding z-score is 0.5 or greater. Tick not satisfied if PBM binding z-score is less than 0.5.

For orientation, consider the following solved cases.
| SEQ STRING | LABEL VALUE |
| --- | --- |
| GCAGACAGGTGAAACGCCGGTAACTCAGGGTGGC | not satisfied |
| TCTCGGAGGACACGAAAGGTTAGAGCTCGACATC | not satisfied |
| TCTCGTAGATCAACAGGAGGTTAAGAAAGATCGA | not satisfied |
| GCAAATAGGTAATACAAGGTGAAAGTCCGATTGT | satisfied |
| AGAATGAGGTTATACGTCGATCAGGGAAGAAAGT | not satisfied |
| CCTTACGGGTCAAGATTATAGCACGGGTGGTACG | not satisfied |

Query: # bool: PBM binding z-score of "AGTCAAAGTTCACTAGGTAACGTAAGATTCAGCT" >= 0.5
Reply: satisfied

Query: Does the sequence "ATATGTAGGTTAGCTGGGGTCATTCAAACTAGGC" have recorded PBM binding z-score that is 0.5 or more?
Reply: satisfied

Query: // inclusive: PBM binding z-score at least 0.5? input: "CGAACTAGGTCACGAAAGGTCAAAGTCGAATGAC"
Reply: satisfied

Query: Does "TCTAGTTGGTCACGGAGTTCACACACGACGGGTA" have a reported PBM binding z-score of at least 0.5?
Reply: satisfied

Query: Decide: PBM binding z-score of "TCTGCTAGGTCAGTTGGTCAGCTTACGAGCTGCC" >= 0.5?
Reply: not satisfied

Query: Threshold query (PBM binding z-score >= 0.5) on "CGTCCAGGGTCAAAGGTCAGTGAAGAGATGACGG"
Reply: not satisfied

Query: Identify whether the reported PBM binding z-score of the following sequence is 0.5 or greater: "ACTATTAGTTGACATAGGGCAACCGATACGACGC"
Reply: satisfied

Query: Test whether the sequence "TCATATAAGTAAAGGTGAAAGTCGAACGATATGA" records PBM binding z-score of 0.5 or higher.
Reply: satisfied

Query: # bool: PBM binding z-score of "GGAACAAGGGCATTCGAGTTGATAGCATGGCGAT" >= 0.5
Reply: not satisfied

* * *

Tested on: PPARg:RXRa 90nM:30nM, anti-RXR (NR concentration 90 nM, RXRa partner concentration 30 nM)
Test: PBM binding z-score (relative to random genomic background probes); higher = stronger binding; sequences stand for … in GC…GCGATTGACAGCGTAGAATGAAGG
Entries annotated with measured PBM binding z-score
Form field (numeric): enter value without unit.

| SEQ STRING | PBM binding z-score |
| --- | --- |
| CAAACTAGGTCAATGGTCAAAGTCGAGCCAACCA | 8.7 |
| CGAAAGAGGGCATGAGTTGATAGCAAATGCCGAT | 0.644 |
| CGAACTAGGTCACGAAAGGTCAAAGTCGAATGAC | 8.51 |
| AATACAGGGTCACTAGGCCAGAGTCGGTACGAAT | 5.2 |
| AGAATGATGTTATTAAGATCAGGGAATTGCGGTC | -0.208 |

Record "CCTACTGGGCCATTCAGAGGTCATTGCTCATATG" , field PBM binding z-score: 2.16

PBM binding z-score reading for "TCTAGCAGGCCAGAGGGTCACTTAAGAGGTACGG" : 2.57

// recorded PBM binding z-score for "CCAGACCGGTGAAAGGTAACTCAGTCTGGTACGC" : 3.56

In plain terms, "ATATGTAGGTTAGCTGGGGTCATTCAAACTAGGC" has a documented PBM binding z-score of 4.91

* * *

Tested on: THRa:RXRa (NR concentration 90 nM, RXRa partner concentration 90 nM)
Assay: PBM binding z-score (relative to random genomic background probes); higher = stronger binding; sequences stand for … in GC…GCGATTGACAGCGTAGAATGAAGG
Reported PBM binding z-score is given for each of the following sequences.

| SEQ STRING | PBM binding z-score |
| --- | --- |
| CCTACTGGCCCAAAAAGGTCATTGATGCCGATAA | 3.39 |

Form: sequence = "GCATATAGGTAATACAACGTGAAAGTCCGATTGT" ; PBM binding z-score = -0.366

Lab book: PBM binding z-score of "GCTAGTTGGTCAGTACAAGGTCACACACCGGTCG" noted as 4.02

Sure, the documented PBM binding z-score for "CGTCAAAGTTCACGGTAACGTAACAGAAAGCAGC" is 2.38

* * *

System: LXRb:RXRa (NR concentration 270 nM, RXRa partner concentration 90 nM)
Experiment: PBM binding z-score (relative to random genomic background probes); higher = stronger binding; sequences stand for … in GC…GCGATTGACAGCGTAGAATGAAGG
Each entry below carries its reported PBM binding z-score.
// print number alone

Below, each entry is followed by its recorded PBM binding z-score result.
| SEQ STRING | PBM binding z-score |
| --- | --- |
| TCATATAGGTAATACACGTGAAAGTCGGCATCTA | 1.06 |
| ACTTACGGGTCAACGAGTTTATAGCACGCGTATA | 4.03 |
| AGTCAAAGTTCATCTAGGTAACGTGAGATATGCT | 3.81 |
| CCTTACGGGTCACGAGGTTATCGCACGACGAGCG | 4.02 |
| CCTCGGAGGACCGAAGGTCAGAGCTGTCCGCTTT | 0.863 |

In plain terms, "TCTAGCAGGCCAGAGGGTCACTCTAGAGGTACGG" has a documented PBM binding z-score of 1.02

# PBM binding z-score of "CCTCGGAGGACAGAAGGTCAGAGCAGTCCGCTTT" = 1.25

Per the records, this sequence ( "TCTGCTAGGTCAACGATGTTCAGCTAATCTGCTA" ) has PBM binding z-score equal to 1.39

Entry "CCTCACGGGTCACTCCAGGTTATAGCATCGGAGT" — recorded PBM binding z-score = 5.28

Field PBM binding z-score (entry "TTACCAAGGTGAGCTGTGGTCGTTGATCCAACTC" ) reads -0.347

From: the supplement of paper PMC6555819
